assay.details: Rat liver microsomal stability
Type: in vitro ADME
particulars: rat liver microsomes 0.5 mg/mL, with NADPH, compound 0.5 μM, 37° C.; read-out: Rat Liver Microsomal Stability t1/2
Use 20 min as the dividing line for half-life, with the line itself on the YES side and lower values as NO.

Prompt: Answer whether half-life of CC(=O)[C@H]1CC[C@H]2[C@@H]3CC[C@H]4C[C@](C)(O)CC[C@]4(C)[C@H]3CC[C@]12C [ganaxolone, Ganaxolone] is greater than or equal to 20 min.
Completion: NO

Prompt: Answer whether half-life of COCCN(C)CC(=O)O[C@]1(C)CC[C@@]2(C)[C@@H](CC[C@@H]3[C@@H]2CC[C@]2(C)[C@@H](C(C)=O)CC[C@@H]32)C1 [Compound 104] is greater than or equal to 20 min.
Completion: NO

Prompt: Answer whether half-life of COc1ccccc1N1CCN(CC(=O)O[C@]2(C)CC[C@@]3(C)[C@@H](CC[C@@H]4[C@@H]3CC[C@]3(C)[C@@H](C(C)=O)CC[C@@H]43)C2)CC1 [Compound 100] is greater than or equal to 20 min.
Completion: NO

Prompt: Answer whether half-life of CC(=O)[C@H]1CC[C@H]2[C@@H]3CC[C@H]4C[C@](C)(OC(=O)COC(=O)C(C)(C)OC(=O)CN(CCO)CCO)CC[C@]4(C)[C@H]3CC[C@]12C [Compound 228] is greater than or equal to 20 min.
Completion: NO

Prompt: Answer whether half-life of CC(=O)[C@H]1CC[C@H]2[C@@H]3CC[C@H]4C[C@](C)(OC(=O)CNC(C)(C)C(=O)O)CC[C@]4(C)[C@H]3CC[C@]12C [Compound 120] is greater than or equal to 20 min.
Completion: YES

---

assay.details: in vitro
Assay type: in vitro ADME, human
particulars: human liver microsomes 0.5 mg/mL, with NADPH, compound 0.5 μM; read-out: Human Liver Microsomal Stability CLint (uL/min/mg liver) (converted)
Description: For several compounds only human liver microsomal stability was tested. […] The microsomal assays were carried out with and without the addition of NADPH at a final concentration of 1 mM. For negative control samples, NADPH reagent was not added. […] Note that compounds undergo only Phase I metabolism in liver microsomes.
Here, each record is paired with measured microsomal CLint data.
Please give a number only; it is taken to be in µL/min/mg.

>  <smiles>
COCCOCC(=O)OCC(=O)O[C@]1(C)CC[C@@]2(C)[C@@H](CC[C@@H]3[C@@H]2CC[C@]2(C)[C@@H](C(C)=O)CC[C@@H]32)C1

>  <result.unit>
µL/min/mg

>  <result.value>
337

$$$$
>  <smiles>
CC(=O)[C@H]1CC[C@H]2[C@@H]3CC[C@H]4C[C@](C)(OC(=O)CCCCN)CC[C@]4(C)[C@H]3CC[C@]12C

>  <result.unit>
µL/min/mg

>  <result.value>
3.08

$$$$
>  <smiles>
COC(=O)C(C)(C)NCC(=O)O[C@]1(C)CC[C@@]2(C)[C@@H](CC[C@@H]3[C@@H]2CC[C@]2(C)[C@@H](C(C)=O)CC[C@@H]32)C1

>  <result.unit>
µL/min/mg

>  <result.value>
354

$$$$
>  <smiles>
CC(=O)[C@H]1CC[C@H]2[C@@H]3CC[C@H]4C[C@](C)(OC(=O)COC(=O)C(C)(C)N5CCOCC5)CC[C@]4(C)[C@H]3CC[C@]12C

>  <result.unit>
µL/min/mg

>  <result.value>
50.7

$$$$
>  <smiles>
COC(=O)[C@@H](NCC(=O)O[C@]1(C)CC[C@@]2(C)[C@@H](CC[C@@H]3[C@@H]2CC[C@]2(C)[C@@H](C(C)=O)CC[C@@H]32)C1)C(C)C

>  <result.unit>
µL/min/mg

>  <result.value>
114

$$$$

Prompt: I would be grateful if you could share the reported microsomal CLint for "CC(=O)[C@H]1CC[C@H]2[C@@H]3CC[C@H]4C[C@](C)(OC(=O)CCCN)CC[C@]4(C)[C@H]3CC[C@]12C" .
Completion: 2.81

---

assay.details: Pharmacokinetic study with Compound 218 (IV 5 mg/kg, PO 25 mg/kg)
Assay type: in vivo
particulars: dog, plasma; analyte Compound 218; oral 25 mg/kg Compound 218; fasted male beagle dogs; mean; read-out: Compound 218 PK MRTInf
endpoint.label: MRT inf (h)
Please give a number only; it is taken to be in h.

Prompt: I would be grateful if you could share the reported MRT inf for "CC(=O)[C@H]1CC[C@H]2[C@@H]3CC[C@H]4C[C@](C)(OC(=O)COC(=O)C(C)(C)N)CC[C@]4(C)[C@H]3CC[C@]12C" .
Completion: 6.38

---

assay.details: in vitro
particulars: rat plasma, 2 μg/mL, 37° C.
Response field label takes Satisfied when Rat plasma t90 is strictly below 90 min and Not satisfied in all other cases.

Prompt: Please check: Rat plasma t90 for CC(=O)[C@H]1CC[C@H]2[C@@H]3CC[C@H]4C[C@](C)(OC(=O)CNC(C)(C)C(=O)O)CC[C@]4(C)[C@H]3CC[C@]12C [Compound 120] , strictly under 90 min or not?
Completion: Satisfied

Prompt: Please check: Rat plasma t90 for CC(=O)[C@H]1CC[C@H]2[C@@H]3CC[C@H]4C[C@](C)(OC(=O)COC(=O)C(C)(C)OC(=O)CN(CCO)CCO)CC[C@]4(C)[C@H]3CC[C@]12C [Compound 228] , strictly under 90 min or not?
Completion: Satisfied

Prompt: Please check: Rat plasma t90 for CC(=O)[C@H]1CC[C@H]2[C@@H]3CC[C@H]4C[C@](C)(OC(=O)CN)CC[C@]4(C)[C@H]3CC[C@]12C [Compound 111] , strictly under 90 min or not?
Completion: Not satisfied

Prompt: Please check: Rat plasma t90 for CC(=O)[C@H]1CC[C@H]2[C@@H]3CC[C@H]4C[C@](C)(O)CC[C@]4(C)[C@H]3CC[C@]12C [ganaxolone, Ganaxolone] , strictly under 90 min or not?
Completion: Not satisfied

Prompt: Please check: Rat plasma t90 for COc1ccccc1N1CCN(CC(=O)O[C@]2(C)CC[C@@]3(C)[C@@H](CC[C@@H]4[C@@H]3CC[C@]3(C)[C@@H](C(C)=O)CC[C@@H]43)C2)CC1 [Compound 100] , strictly under 90 min or not?
Completion: Satisfied

---

assay.details: in vitro
Assay type: in vitro ADME, human
particulars: human, microsomes, 1 h
Procedure: For several compounds only human liver microsomal stability was tested. […] The microsomal assays were carried out with and without the addition of NADPH at a final concentration of 1 mM. For negative control samples, NADPH reagent was not added. […] Note that compounds undergo only Phase I metabolism in liver microsomes.
Here, each record is paired with measured Human Liver Microsomal Stability no NADPH, % remain 1 h data.
Please give a number only; it is taken to be in %.

>  <compound>
COC(=O)[C@@H](C)NCC(=O)O[C@]1(C)CC[C@@]2(C)[C@@H](CC[C@@H]3[C@@H]2CC[C@]2(C)[C@@H](C(C)=O)CC[C@@H]32)C1 [Compound 106]

>  <result.unit>
%

>  <result.value>
3.05

$$$$
>  <compound>
CC(=O)[C@H]1CC[C@H]2[C@@H]3CC[C@H]4C[C@](C)(OC(=O)CSCCN)CC[C@]4(C)[C@H]3CC[C@]12C [Compound 302]

>  <result.unit>
%

>  <result.value>
99

$$$$
>  <compound>
CC(=O)[C@H]1CC[C@H]2[C@@H]3CC[C@H]4C[C@](C)(OC(=O)CN(CCO)CCO)CC[C@]4(C)[C@H]3CC[C@]12C [Compound 142]

>  <result.unit>
%

>  <result.value>
99

$$$$
>  <compound>
CC(=O)[C@H]1CC[C@H]2[C@@H]3CC[C@H]4C[C@](C)(OC(=O)COC(=O)C(C)(C)OC(=O)CN(C)CCOC(=O)CN)CC[C@]4(C)[C@H]3CC[C@]12C [Compound 241]

>  <result.unit>
%

>  <result.value>
3.68

$$$$
>  <compound>
CC(=O)[C@H]1CC[C@H]2[C@@H]3CC[C@H]4C[C@](C)(OC(=O)COC(=O)C(C)(C)OC(=O)CN(C)C)CC[C@]4(C)[C@H]3CC[C@]12C [Compound 227]

>  <result.unit>
%

>  <result.value>
71

$$$$
>  <compound>
CC(=O)[C@H]1CC[C@H]2[C@@H]3CC[C@H]4C[C@](C)(OC(=O)CN5CCOCC5)CC[C@]4(C)[C@H]3CC[C@]12C [Compound 101]

>  <result.unit>
%

>  <result.value>
99.0

$$$$
>  <compound>
CC(=O)[C@H]1CC[C@H]2[C@@H]3CC[C@H]4C[C@](C)(OC(=O)CNC(C)(C)CO)CC[C@]4(C)[C@H]3CC[C@]12C [Compound 132]

>  <result.unit>
%

>  <result.value>
1

$$$$
>  <compound>
CC(=O)[C@H]1CC[C@H]2[C@@H]3CC[C@H]4C[C@](C)(OC(=O)CNC(=O)C(C)(C)O)CC[C@]4(C)[C@H]3CC[C@]12C [Compound 141]

>  <result.unit>
%

>  <result.value>
99.7

$$$$
>  <compound>
CC(=O)[C@H]1CC[C@H]2[C@@H]3CC[C@H]4C[C@](C)(OC(=O)CCC(=O)OCCN(C)C)CC[C@]4(C)[C@H]3CC[C@]12C [Compound 409]

>  <result.unit>
%

>  <result.value>
7

$$$$

Query compound follows.
Prompt: I would be grateful if you could share the reported Human Liver Microsomal Stability no NADPH, % remain 1 h for CC(=O)[C@H]1CC[C@H]2[C@@H]3CC[C@H]4C[C@](C)(OC(=O)COC(=O)C(C)(C)O)CC[C@]4(C)[C@H]3CC[C@]12C [Compound 224] .
Completion: 0.4
